# note: exactly 2 is not below, so it is NOT MET; use MET for logP strictly under it

// below: answered compounds
Cn1c(S)nnc(-c2ccc(F)cc2)c1=O: NOT MET
Nc1ccc(Cl)cc1Cl: NOT MET
CCc1ccc(OCC(OC(=S)n2ccnc2)C(C)(C)C)cc1 (centres undefined): NOT MET
COc1ccccc1/C=C/C(=O)O: NOT MET
CN(C)C(=O)NCCCCn1nc(-c2ccccc2)ccc1=O: MET

hey, is logP for CNC(=O)NC(=O)C(C)(C(=O)OCOC)C1=CCCCC1 (centres undefined) lower than 2 or not?
MET

A record lists `O=C(O)c1cccc(Cl)n1` . Is its logP below 2?
MET

Check if logP falls below 2 for CC(C)C1NC(=O)NC1=O (centres undefined) .
MET

Dear colleague, could you confirm whether logP of `Nc1cccc(C(=O)O)c1` falls below 2? Thanks.
MET

###

Use rule met when the recorded logP is no lower than 4; use rule not met when it is lower.

Nc1cc(Cl)c(Cl)c(Cl)c1Cl: rule met

Threshold query (logP >= 4) on `CCNc1nc(C)c(C(=O)CCN(C)C)s1`
rule not met

###

Consider the following molecules; for each one, report its logP.
One number for each entry.

The following molecules have reported results that may help.
COC(=O)NC1=NCC(c2ccc(C=O)cc2)N1C (configuration not stated): 0.74
CCOC(=O)c1cnc2n(c1=O)CC(C)CC2 (configuration not stated): 0.71
CN1CC(=O)N(c2ccccc2)C1=O: 0.14

Report logP for every entry below.
1. NS(=O)(=O)c1cc2c(cc1C(F)(F)F)NC=NS2(=O)=O
2. CC1(C)S[C@@H]2[C@H](NC(=O)C3(N)CCCCC3)C(=O)N2[C@H]1C(=O)O
3. Cc1c(O)ccc(O)c1C
4. CCC(CC)(C(=O)NC(N)=O)C(=O)OCC(=O)OC
5. CC(=O)N1c2ccc(C)cc2C2CN(C)CCC21 (configuration not stated)
6. O=C(O)C=Cc1ccc(O)cc1

0.32
1.31
1.36
0.99
1.25
1.46

Lab note: each molecule below needs its logP filled in.
1. O=C(c1c(F)c(F)c(F)c(F)c1F)c1ccc2n1CCC2C(=O)O (configuration not stated)
2. CC1(C)S[C@@H]2[C@H](NC(=O)[C@H](N)c3ccccc3)C(=O)N2[C@H]1C(=O)O
3. CCCOc1ccc(OCC(OC(=O)n2ccnc2)C(C)(C)C)cc1 (configuration not stated)

1. 3.24
2. 1.35
3. 4.1

###

Quick rule for you: logP at 3 or higher means label 1, lower means label 0.

Solved entries:
NS(=O)(=O)c1ccc2c(c1)S(=O)(=O)NC(C(Cl)Cl)N2 (stereo not given): label 0
CSc1nnc(C2CCOCC2)c(=O)n1N: label 0
O=c1[nH]c(=S)ccn1[C@H]1CC[C@@H](CO)O1: label 0
COc1cccc(C2(O)CCCCC2CN(C)C)c1 (stereo not given): label 0
CC(C)c1ccc(C2C(=O)c3ccccc3C2=O)cc1: label 1

Could you please find out whether CC(=O)n1cc(CC(NC(=O)CC2NC(=O)C3C4CCC(CC4)N3C2=O)C(=O)NC(Cc2ccccc2)C(=O)N(C)Cc2ccccc2)c2ccccc21 (stereo not given) has logP that meets 3 or exceeds it?
label 1

// inclusive: logP at least 3? input: `Cc1nn(-c2ccccc2)c(Nc2ccc(C(F)(F)F)cc2)c1[N+](=O)[O-]`
label 1

Does the compound CCc1c(C)nc2n(c1=O)C(C)CCC2 (stereo not given) have recorded logP that is 3 or more?
label 0

Decide: is the reported value of logP for `Cc1cc(O)c(N(C)C)nn1` equal to or greater than 3?
label 0

logP >= 3 for CC12CCC(OS(=O)(=O)O)CC1CCC1C2CCC2(C)C(C3=CC(=O)OC3)CCC12O (stereo not given) ?
label 0

Say whether `O=C(O)Cc1cc(O)ccc1O` shows logP of 3 or more.
label 0

Assess whether reported logP for `N[C@H]1CCc2ccccc2[C@H]1O` sits at 3 or higher.
label 0

Check the entry `O=C(O)CCCCOc1cccc2ccccc12` : does logP equal or exceed 3?
label 1

Please tell me: is the compound `OC[C@@H](O)[C@@H](O)[C@H](O)[C@@H](O)CO` at or over 3 in terms of logP?
label 0

Hello, I need to know if `Clc1ccc(-c2ccc(Cl)cc2)cc1` has measured logP not below 3. Thanks!
label 1

Is the recorded value of logP equal to or greater than 3 for this compound? COC(=O)NC1=NCC(c2cc(Br)ccc2Br)N1C (stereo not given)
label 0

Form field: logP at least 3? Entry: C=C1C(=O)OC2CC3=CC(CC4(C)OC4C(O)C12)OC3=O (stereo not given)
label 0

Check the entry `Fc1ccccc1C1=NCC(=S)N(CC(F)(F)F)c2ccc(Cl)cc21` : does logP equal or exceed 3?
label 1

Reported logP reaches at least 3 for `CCCC(=O)N1CCCC1=O` ?
label 0

Could you tell me if the measured logP of `COc1ccc2c(c1)[nH]c1c(C)nccc12` reaches 3 or more?
label 1

Answer whether logP of `NC(=O)c1cc2ccccc2[nH]1` is greater than or equal to 3.
label 0

Given the entry `Nc1ccc(S(=O)(=O)N2C(=O)NC(=O)C2(c2ccccc2)c2ccccc2)cc1` , answer whether its logP meets or surpasses 3.
label 1

Answer whether logP of CC1c2cccc(O)c2C(=O)C2=C(O)C3(O)C(=O)C(C(N)=O)=C(O)C(N(C)C)C3C(O)C21 (stereo not given) is greater than or equal to 3.
label 0

Would you say `Cc1ccc(C)c(C)c1C` shows logP at minimum 3?
label 1

Could you tell me if the measured logP of CCN(CC)C(=O)Nc1ccc(OCC(O)CNC(C)(C)C)c(C(C)=O)c1 (stereo not given) reaches 3 or more?
label 0

###

What logP was measured for each of the following?
One number for each entry.

CC(=O)Nc1n[nH]c(C)cc1=O: -0.89

Value sought for every listed molecule: logP.
1. O=C(NN1CC=CCC1)C1CC1
2. CC(=O)n1c(=O)[nH]cc(F)c1=O

1. 1.12
2. -0.34

Count: 3. Required value per item: logP.
1. O=C1CN=C(c2ccccn2)c2cc(Br)ccc2N1
2. CC1CCC=C2N(C)C=C(C(N)=O)C(=O)N21 (stereo not drawn)
3. COc1cc(C(N)=O)ccc1-c1nc2ccncc2[nH]1

[2.05, 0.12, 1.18]

###

Please go through the items and note down their logP.
Give bare numbers.

CC=COCC(O)Cn1ccnc1[N+](=O)[O-] (stereo not drawn): 0.28
O=C(O)CCCCCOc1cccc2ccccc12: 4.5
Cc1cc2n(c1C(=O)c1ccccc1)CCC2C(=O)O (stereo not drawn): 2.85
NC(=O)NCCC[C@H](N)C(=O)O: -3.19
CCCC(=O)OCC1OC(n2cc(F)c(=O)[nH]c2=O)CC1OC(=O)CCC (stereo not drawn): 1.9

Hey, can you go through the list below and give me logP for every item?
1. O=C1C=CC(=O)c2c(O)ccc(O)c21
2. CN(C)C=C1OC(=O)C(C#N)=C1c1ccccc1
3. CCOc1cccc(-c2nnc(S)n(C)c2=O)c1
4. O=C1CN=C(c2ccccc2)c2cc(Cl)ccc2N1CC(F)(F)F

1. 1.79
2. 1.07
3. 2.67
4. 3.97

###

Class 1: logP at least 2. Class 0: logP below 2.

C=C1C(=O)OC2C1CCC(C)C1(O)CCC(=O)C21C (centres undefined): 0

Entry `CCC(=O)O[C@]1(C(=O)CCl)[C@@H](C)C[C@H]2[C@@H]3CCC4=CC(=O)C=C[C@]4(C)[C@@]3(F)[C@@H](O)C[C@@]21C` : is its logP no less than 2?
1

hey, is logP for this one >= 2? `N=C(N)N1CCc2ccccc2C1`
0

Is logP at least 2? Consider `Cn1c([N+](=O)[O-])cnc1C1CC1`
0

Is it the case that CCOC(=O)NC1=NCC(c2cccc(C)c2C)N1C (centres undefined) has logP reaching or exceeding 2?
1

Is the recorded value of logP equal to or greater than 2 for this molecule? `CCOC(=O)Nc1ccc2c(c1)N(C(=O)CCN1CCOCC1)c1ccccc1S2`
1

###

Please use condition met whenever logP is not below 3, and condition not met whenever it is.

CC(C)c1cccc(C2C(=O)c3ccccc3C2=O)c1: condition met

logP >= 3 for CCC12CCN(CC3(O)CC3)C(Cc3ccc(O)cc31)C2(C)C (stereo not given) ?
condition met

Is the recorded value of logP equal to or greater than 3 for this compound? `Cc1ccc(C(=O)CCN2CCCCC2)cc1`
condition met

Hi, just wondering whether `Cc1cc(N)ccc1C(=O)O` shows logP of 3 or higher.
condition not met

// inclusive: logP at least 3? input: CN1C(O)C(O)C(O)C(O)C1CO (stereo not given)
condition not met

Dear colleague, could you confirm whether `CCCCCN(C)C(=O)c1cccc(Oc2ccccc2)c1` has logP at or above 3?
condition met
